// data source = patent US10689354B2

System Under Test: human androgen receptor (Homo sapiens, UniProt P10275)
Construct: expressed in transfected cells; host or cells: HEK293
Sequence (P10275 whole entry): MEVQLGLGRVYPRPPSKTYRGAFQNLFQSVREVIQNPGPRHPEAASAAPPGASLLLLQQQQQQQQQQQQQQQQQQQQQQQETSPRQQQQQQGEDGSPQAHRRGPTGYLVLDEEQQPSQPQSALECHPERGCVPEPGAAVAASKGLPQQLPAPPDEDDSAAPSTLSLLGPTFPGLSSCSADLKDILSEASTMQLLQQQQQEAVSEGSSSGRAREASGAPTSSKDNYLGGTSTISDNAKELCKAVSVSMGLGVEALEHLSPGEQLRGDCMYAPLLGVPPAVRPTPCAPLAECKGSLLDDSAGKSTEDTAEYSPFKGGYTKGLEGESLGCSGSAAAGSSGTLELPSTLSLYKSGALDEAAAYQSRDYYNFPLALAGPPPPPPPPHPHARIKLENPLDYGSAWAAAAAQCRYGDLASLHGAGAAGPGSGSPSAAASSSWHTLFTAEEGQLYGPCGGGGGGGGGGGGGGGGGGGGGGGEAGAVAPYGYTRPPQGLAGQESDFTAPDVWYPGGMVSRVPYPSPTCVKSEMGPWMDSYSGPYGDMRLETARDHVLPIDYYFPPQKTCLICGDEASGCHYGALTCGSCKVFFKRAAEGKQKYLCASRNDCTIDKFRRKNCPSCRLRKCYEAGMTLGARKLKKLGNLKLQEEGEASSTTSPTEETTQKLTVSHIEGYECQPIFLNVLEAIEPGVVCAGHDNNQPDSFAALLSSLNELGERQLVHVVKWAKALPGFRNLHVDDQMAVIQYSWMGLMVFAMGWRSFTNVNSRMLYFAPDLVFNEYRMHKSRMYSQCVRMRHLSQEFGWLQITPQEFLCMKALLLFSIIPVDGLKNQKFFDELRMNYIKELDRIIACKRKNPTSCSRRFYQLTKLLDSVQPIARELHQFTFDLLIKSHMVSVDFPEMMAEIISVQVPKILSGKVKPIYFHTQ
Test Name: Reporter assay of an androgen receptor responsive sequence (luciferase, transiently transfected HEK293 cells)
Assay type: cell-based
Test Context: 24 hours incubation, relative to activity of 100 nM DHT, read-out: AR transcriptive activity (pEC50) (converted)
Method: Reporter Assay of an Androgen Receptor Responsive Sequence To examine the agonist activity of compounds for androgen, a reporter assay using an androgen receptor responsive sequence was conducted. Using Lipofectamine 2000 (Invitrogen), a plasmid mixture (pGL4-ARE (200 ng/well), pcDNA3-hAR (20 ng/well), pRL-TK (Promega) (150 ng/well)) was transiently transfected into HEK293 cells. The contents of the plasmid (mixture) are as follows: […]

{"Chemical Structure": "Cc1sc(N(CCC2CCCCC2)Cc2ccccc2)nc1C(=O)NS(C)(=O)=O", "EC50": "> 10 µM"}
{"Chemical Structure": "Cc1sc(N(CC2CCCC2)c2ccc(C#N)cc2)nc1C(=O)NS(C)(=O)=O", "EC50": "> 10 µM"}
{"Chemical Structure": "Cc1sc(N(Cc2ccc(OC(F)(F)F)cc2F)c2ccc(C#N)cc2)nc1C(=O)NS(C)(=O)=O", "EC50": "0.501 µM"}
{"Chemical Structure": "Cc1sc(N(Cc2ccccc2)c2ccc(C#N)cc2)nc1C(=O)NS(=O)(=O)CCc1ccccc1", "EC50": "> 10 µM"}
{"Chemical Structure": "CC(C)c1sc(N(Cc2ccccc2)c2ccc(C#N)cc2)nc1C(=O)NS(C)(=O)=O", "EC50": "> 10 µM"}

----------
System Under Test: androgen receptor (AR-LBD) (Rattus norvegicus)
Construct: 5 μL of 2×AR-LBD/Fluoromone AL Red Complex contained in the kit; purchased Invitrogen
Test Name: Evaluation of androgen receptor affinity (PolarScreen Androgen Receptor Competitor Assay Kit, Red; fluorescence polarization)
Test Context: 22° C. for 5 hours, relative to binding rate of 1 μM DHT, read-out: AR affinity (pEC50) (converted)
Procedure: Evaluation of an Androgen Receptor Affinity To examine the interaction of a compound with an androgen receptor, evaluation was carried out in accordance with the following procedure using PolarScreen™ Androgen Receptor Competitor Assay Kit, Red (Invitrogen). To 2 wells each of a 384 well black plate was added 5 μL of the compound solution. […] After 5 hours of the reaction, fluorescence polarization was measured and the affinity was evaluated. […]

{"Molecule": "Cc1sc(N(Cc2ccccc2)c2ccc(CCOCc3ccccc3)cc2)nc1C(=O)NS(C)(=O)=O [Example 235]", "EC50": "> 2 µM"}
{"Molecule": "Cc1sc(N(Cc2ccccc2)c2cccc(OCCOCc3ccccc3)c2)nc1C(=O)NS(C)(=O)=O [Example 208]", "EC50": "> 2 µM"}
{"Molecule": "Cc1sc(N(Cc2ccncc2)c2ccc(C#N)cc2)nc1C(=O)NS(C)(=O)=O [Compound 44]", "EC50": "> 2 µM"}
{"Molecule": "Cc1sc(N(Cc2ccccc2)c2ccc(CCO)cc2)nc1C(=O)NS(C)(=O)=O [Example 234]", "EC50": "> 2 µM"}
{"Molecule": "Cc1sc(N(CC2CCOCC2)c2ccc(C#N)cc2)nc1C(=O)NS(C)(=O)=O [Compound 346]", "EC50": "> 2 µM"}
{"Molecule": "COc1ccccc1N(Cc1ccccc1)c1nc(C(=O)NS(C)(=O)=O)c(C)s1 [Compound 47]", "EC50": "> 2 µM"}
{"Molecule": "Cc1sc(N(Cc2ccccc2)Cc2ccccc2)nc1C(=O)NS(C)(=O)=O [Example 288]", "EC50": "> 2 µM"}

----------
System Under Test: androgen receptor (AR-LBD) (Rattus norvegicus, UniProt P15207)
Construct: 5 μL of 2×AR-LBD/Fluoromone AL Red Complex contained in the kit; purchased Invitrogen
Test Name: Evaluation of androgen receptor affinity (PolarScreen Androgen Receptor Competitor Assay Kit, Red; fluorescence polarization)
Test Context: 22° C. for 5 hours, relative to binding rate of 1 μM DHT, read-out: AR affinity (pEC50) (converted)

{"Compound": "Cc1sc(N(Cc2ccccc2)c2cccc(OC(F)(F)F)c2)nc1C(=O)NS(C)(=O)=O [Compound 35]", "System Under Test": "androgen receptor (AR-LBD) (Rattus norvegicus, UniProt P15207)", "EC50": "> 2000 nM"}
{"Compound": "Cc1sc(N(Cc2ccccc2)Cc2ccc(C#N)cc2)nc1C(=O)NS(C)(=O)=O [Example 289]", "System Under Test": "androgen receptor (AR-LBD) (Rattus norvegicus, UniProt P15207)", "EC50": "> 2000 nM"}
{"Compound": "Cc1noc(C)c1CN(CCc1ccc(Cl)cc1)c1nc(C(=O)NS(C)(=O)=O)c(C)s1 [Compound 151]", "System Under Test": "androgen receptor (AR-LBD) (Rattus norvegicus, UniProt P15207)", "EC50": "> 2000 nM"}
{"Compound": "Cc1sc(N(Cc2ccccc2)c2cccc(OCCO)c2)nc1C(=O)NS(C)(=O)=O [Example 210]", "System Under Test": "androgen receptor (AR-LBD) (Rattus norvegicus, UniProt P15207)", "EC50": "> 2000 nM"}
{"Compound": "Cc1sc(N(CC(=O)N(C)C2CCCCC2)c2ccc(C#N)cc2)nc1C(=O)NS(C)(=O)=O [Compound 424]", "System Under Test": "androgen receptor (AR-LBD) (Rattus norvegicus, UniProt P15207)", "EC50": "> 2000 nM"}
{"Compound": "Cc1sc(N(Cc2ccccc2)Cc2cccc(C#N)c2)nc1C(=O)NS(C)(=O)=O [Example 290]", "System Under Test": "androgen receptor (AR-LBD) (Rattus norvegicus, UniProt P15207)", "EC50": "> 2000 nM"}
{"Compound": "Cc1sc(N(Cc2ccccc2)c2cccc(CCO)c2)nc1C(=O)NS(C)(=O)=O [Compound 605]", "System Under Test": "androgen receptor (AR-LBD) (Rattus norvegicus, UniProt P15207)", "EC50": "> 2000 nM"}
{"Compound": "Cc1sc(N(Cc2ccccc2)c2cccc(CO)c2)nc1C(=O)NS(C)(=O)=O [Example 229]", "System Under Test": "androgen receptor (AR-LBD) (Rattus norvegicus, UniProt P15207)", "EC50": "> 2000 nM"}

----------
System Under Test: androgen receptor (AR-LBD) (Rattus norvegicus, UniProt P15207)
Construct: 5 μL of 2×AR-LBD/Fluoromone AL Red Complex contained in the kit; purchased Invitrogen
Test Name: Evaluation of androgen receptor affinity (PolarScreen Androgen Receptor Competitor Assay Kit, Red; fluorescence polarization)
Test Context: 22° C. for 5 hours, relative to binding rate of 1 μM DHT, read-out: AR affinity (pEC50) (converted)

{"Compound": "Cc1oc(N(CCc2ccc(OC(F)(F)F)cc2)Cc2ccc(C(F)(F)F)nc2)nc1C(=O)NS(C)(=O)=O [Compound 562]", "EC50": "39.8 nM"}
{"Compound": "Cc1sc(N(Cc2ccc(OC(F)F)nc2)c2ccc(C#N)cc2)nc1C(=O)NS(C)(=O)=O [Compound 524]", "EC50": "39.8 nM"}
{"Compound": "Cc1sc(N(Cc2ccc(OCCN3CCOCC3)cc2)c2ccc(C#N)cc2)nc1C(=O)NS(C)(=O)=O [Compound 572]", "EC50": "1580 nM"}
{"Compound": "Cc1sc(N(c2ccc(C#N)cc2)C(C)c2ccccc2)nc1C(=O)NS(C)(=O)=O (stereo not drawn) [Compound 58]", "EC50": "> 2000 nM"}
{"Compound": "Cc1sc(N(CC2CCCC(O)C2)c2ccc(C#N)cc2)nc1C(=O)NS(C)(=O)=O (stereo not drawn) [Compound 427]", "EC50": "> 2000 nM"}
{"Compound": "Cc1sc(N(CCc2ccc(C#N)cc2)Cc2ccc(OC(F)(F)F)cc2)nc1C(=O)NS(=O)(=O)Cc1cccnc1 [Compound 324]", "EC50": "20 nM"}
{"Compound": "Cc1sc(N(Cc2ccccc2)c2cccc(C#N)c2)nc1C(=O)NS(C)(=O)=O [Example 225]", "EC50": "> 2000 nM"}
{"Compound": "CNC(=O)COc1ccc(N(Cc2ccccc2)c2nc(C(=O)NS(C)(=O)=O)c(C)s2)cc1 [Example 213]", "EC50": "> 2000 nM"}
{"Compound": "Cc1sc(N(Cc2ccccc2)C(C)Cc2ccccc2)nc1C(=O)NS(C)(=O)=O (stereo not drawn) [Compound 674]", "EC50": "> 2000 nM"}
{"Compound": "Cc1oc(N(CCc2ccc(C#N)cc2)Cc2ccc(C(F)(F)F)nc2)nc1C(=O)NS(C)(=O)=O [Compound 555]", "EC50": "316 nM"}
{"Compound": "Cc1sc(N(CCc2cccc(Cl)c2)Cc2ccccc2)nc1C(=O)NS(C)(=O)=O [Compound 671]", "EC50": "50.1 nM"}
{"Compound": "CCS(=O)(=O)NC(=O)c1nc(N(CCc2ccc(C#N)cc2)Cc2ccc(OC(F)(F)F)cc2)sc1C [Compound 726]", "EC50": "31.6 nM"}
{"Compound": "CS(=O)(=O)NC(=O)c1nc(N(Cc2ccc(C(F)(F)F)cn2)c2ccc(C#N)cc2)oc1C1CC1 [Compound 649]", "EC50": "631 nM"}
{"Compound": "Cc1sc(N(Cc2ccc(OC(F)(F)F)cc2)c2ccc(C#N)cc2)nc1C(=O)NS(=O)(=O)CCCCO [Example 201]", "EC50": "39.8 nM"}
{"Compound": "Cc1sc(N(Cc2cnc(-c3ccc(F)cc3)s2)c2ccc(C#N)cc2)nc1C(=O)NS(C)(=O)=O [Compound 494]", "EC50": "31.6 nM"}
